// provenance: paper PMC10397247

# interaction score per record follows
TARGET DESC: T1, APC3881-AA
T1 chain: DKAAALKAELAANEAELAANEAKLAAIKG
PROTOCOL NOTES: two-hybrid library CCmax;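 further: natural log of median RNA to DNA barcode read ratio; higher means stronger binding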
DETAILS: mean of both orientations

{"BINDER": "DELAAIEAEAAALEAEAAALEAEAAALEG [APC222-AA]", "interaction score": -1.61}
{"BINDER": "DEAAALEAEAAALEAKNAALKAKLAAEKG [APC2257-AA]", "interaction score": -1.31}
{"BINDER": "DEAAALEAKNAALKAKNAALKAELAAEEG [APC2556-AA]", "interaction score": -1.61}
{"BINDER": "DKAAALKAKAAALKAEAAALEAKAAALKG [APC3323-AA]", "interaction score": -1.64}
{"BINDER": "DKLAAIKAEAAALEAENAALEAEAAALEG [APC1242-AA]", "interaction score": -1.81}
{"BINDER": "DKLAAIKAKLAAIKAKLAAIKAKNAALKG [APC1115-AA]", "interaction score": -1.47}
{"BINDER": "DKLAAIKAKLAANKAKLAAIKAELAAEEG [APC1916-AA]", "interaction score": -1.78}
